STUDY_TARGET: uracil-DNA glycosylase (UDG) (Escherichia coli)
Construct: gene ung
METHOD: TRES G-quadruplex/iridium probe UDG activity assay with commercial UDG; also fluorescence thermal shift (ca. […] °C)
Type: biochemical

MOLECULE | IC50
O=C(N/N=C/c1ccc([N+](=O)[O-])o1)c1ccc(O)cc1 [S13, nifuroxazide] | ~4 µM

====

STUDY_TARGET: uracil-DNA glycosylase (UDG) (Escherichia coli, UniProt P12295)
Construct: gene ung
Sequence (P12295 2-229): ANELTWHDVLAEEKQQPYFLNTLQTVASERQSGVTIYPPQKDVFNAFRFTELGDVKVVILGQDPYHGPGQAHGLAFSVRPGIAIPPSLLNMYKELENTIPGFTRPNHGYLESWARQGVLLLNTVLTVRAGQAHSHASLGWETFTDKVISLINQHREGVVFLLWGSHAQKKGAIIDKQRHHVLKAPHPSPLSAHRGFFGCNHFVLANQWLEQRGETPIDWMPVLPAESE
METHOD: TRES G-quadruplex/iridium probe UDG activity assay with commercial UDG; also fluorescence thermal shift (ca. […] °C)
Format: biochemical
pIC50: −log10 of the molar value.

MOLECULE | pIC50
O=[N+]([O-])c1ccc(S(=O)(=O)N2/C(=C\c3ccccc3)C(O)(c3ccccc3)c3ccccc32)cc1 (stereo not shown) [A8] | 5.72

All figures here come from paper PMC8148385.
